- Assay comment: yeast display, Sf9 membrane polyspecificity reagent, FACS + sequencing; frameworks hold sequencing errors
Quantity measured: polyreactivity (PSR sort gate)

QVQLVESGGGLVQAGGSLRLSCAATGSTFAHNSMGWYRQAPGKESQFVAAISARGGMTYYADSVKGRFTISRDYAKNTVYLQMNSLKPEDTAVYYCAAVFGDYWSSQWSYAYGYWGQGTQVTVSS
high polyreactivity
QVQLVESGGGLVQAGGSLRLSCAASGSIFYRNAMGWYRQAPGKERELVASISASGGRTYYADSVKGRLTISRDNAKNTVYFQMYSLNREETAFYYCNKVSPVAYWYSWGINFDFWGQGTQVTVSS
high polyreactivity

====

- Assay comment: yeast display, Sf9 membrane polyspecificity reagent, FACS + sequencing; frameworks hold sequencing errors
Quantity measured: polyreactivity (PSR sort gate)

QVQHVESGGGLVQAGGSLRLSCAASGRIFRGYAMGWYRQAPGKERELVAVISYSGTRTYYADSVKGRFTISRDNAKNTVYLQMNSLKPEDTAVYYCNARANGFKDGYWGQGTQVTVSS
high polyreactivity
QVQLVESGGGLVQAGGSLRLSCAASGRLFTIYAMGGYTQAPGKERELVATISRRGGSTYYADSVKGRFTISRDNAKNTVYLQMNSLKPEDTAVYYCAKRQRSKAAVAGYVDATGEMDYWGQGTQVTVSS
high polyreactivity
QVQHVESGGGLVQAGGSLRLSCAATGTTFDTYAMGWNRQATGKERELVAAINSGGGTNYADSVKGRFTIARDNAKNTVYLQMNSLKPEVTAVYYCATDIRRDAGGGDFDYWGQGTQVTVSS
low polyreactivity
QVQLVESGGGLVHAGGSLRLSCAASGSIYYGNAMGWYIQAPGKERELVARISWSGSNTRYADSVKGRFTISRDNSKITVYLQMNSLKPEDTAVYYCNRGSYQTSFFRYDYWGQGTQVTVSS
high polyreactivity
QVQLVESVGGLVQAGGSLRLSCAASGGIFGVYAMGWYRQAPGKERELVAAISNSDTSTSYADSVMGRFTISRDIAKNTVYLQMNSVYPEDTAVYYCNADSPSLSGDYWGQGTQVTVSS
low polyreactivity

Now for the sequence whose polyreactivity (PSR sort gate) we want.
sequence QVQLVESGGGLVQAGGSLRLSCAASGLTFVYYAMGWYRQAPGKERELVASISSTGRTYYADSVKGRFTISRDNAKNTVYLQMNSLKPEDTAVYFSAARSTYFKADYWGQGTQVTVSS , polyreactivity (PSR sort gate) observed: high polyreactivity

====

- Assay comment: yeast display, Sf9 membrane polyspecificity reagent, FACS + sequencing; frameworks hold sequencing errors
Quantity measured: polyreactivity (PSR sort gate)

Recorded polyreactivity (PSR sort gate), per entry:
QVQLQESRGGLVQEGGSLRLSSAASGNISPPAHMGWYRPAPGKQRELVASIGNGRTTNYADSVKGRFTISRHNANNTVYLQMYSLKPDETAVYYCSAVRYEYNPYDYWGQGTQVTVSS
low polyreactivity
QVQLVESRGGLVQAGGSLRLSCAATGFTIYYYAMGWYRQAPGKERELVAAITGSGGSTYYADSVKGRFTISRDNAKNTVYLQMNSLKPEDTAVYYCARRYQVGWYYKYDYWGQGTQVTVSS
high polyreactivity
QVQLVESGGGLVQAGGSLRLSCAASGINYTFYAMGWYRQAPGKERELVAAISYSSGSTYADSVKGRFTISRDNAKNTVYLQMNSLKPEDTAVYYCAVDLFPGHSYTYDYWGQGTQVTVSS
low polyreactivity
QVQLLESGGGVVQAGGSLRLSCAASGFTFLYNTMGGYRQAPGKVRELVAAISIRGGSTYYADSVKGRFTISRDNAKNTVYLQMNSLKPEDNAVYYCAARTPTPASRSRVYYWGHGTQVTVSS
high polyreactivity

Now, please, on to the next sequence.
Form field polyreactivity (PSR sort gate), entry QVQLVESGGGLVQAGGSLRLSCAASGRISSQYAMGWYRQAPGKERELVAAISTSGDRTYYADSVKGRFTISRDNAKNTVYLQMNSLKPEDTAVYYCAKDGPYTYGRDIYEYWGQGTQVTVSS : low polyreactivity

====

- Assay comment: yeast display, Sf9 membrane polyspecificity reagent, FACS + sequencing; frameworks hold sequencing errors
Quantity measured: polyreactivity (PSR sort gate)

Worked cases, answers included:
QVQLVESGGGLVQAGGSLSLSCAASGSISLVYAMGWYRQAPGKERELVAAISASGGRTYYADSVKGRFTISRDNAKNTVYLQMNSLKPEDTAVYYFSKDVKKIEFDYWGQGTQVTVSS
high polyreactivity
QVQLVESGGGLVQAGGSLRLSFAASGSTFSRYAMGWYRQAPGKERELVAAISSGGGTNYADSVKGRFTISRDNAKNTVYLQMNSLKPEDTSVYYRAAVTVDFLKGYGWWFWQISDFWGQVTQVTVSS
low polyreactivity
QVQLVESGGGLVQAGGSLRLSCADSGFTFYLYAMGWYRQAPGKERALVAAITGSGGSKYYADSVKGRFTISRYNAKNTVYLQMNSLKPEDTAVYYCAAVFKDSRYQYGFGYDYWGQGTQVTVSS
high polyreactivity
QVQLLESGGGLVQAGGSLRLSCAASGRIFGSNAMGWYRQAPGKERELVAAITRGGSTNYADSVKGRFTISRDNAKNTVYLQMNSLKPEDTAVYYCAVRWYRKYNYWGQGTQVTVSS
high polyreactivity
QVQLVESGGGLVQAGGSLRLSCAASGSTFIQYAMGWSRQAPGNERELVASIRWIGGSTYYADSVKGRFTISRDNAKNTVYLQMNSLKAEDTAVYYCAAGYEYVENGVDWYEYDYWGQGTQVTVSS
low polyreactivity

GET /value?item= QVQLVDSGGGLVQAGGSLRLSCAASGSTFISYAMGWYRQAPGKERELVAAISRRGDSTYYADSVKGRFTISRDNAKNNVYLEMNSLKPEDTAVYYCAADVSGDKGSIHMNYWGQGTLVTVSS &field=polyreactivity (PSR sort gate) returns low polyreactivity

sequence QVQLVESGGGLVQAGGSLRLSCAASGRTFSVNAMGWYRQAPGKERELVAAISWDGGSTYYADSVKGRFTISRDNAKNSVYLQMNSLKPEDTAVYYCNKDLYYAYDYWGQGTQVTVSS , polyreactivity (PSR sort gate) observed: low polyreactivity

The recorded polyreactivity (PSR sort gate) for QVQLVESGGGLVQAGGSLRLSCAASGSNFSFYAMGWYRQAPGKERELVAAISWSGGTTYYADSVKGRFTISRDNAKNTVYLQMNSLKPEDTAVYYCAASEYDGYGGYYWGQGSQVTVSS is low polyreactivity

polyreactivity (PSR sort gate) for QVQLVESGGGLVQAGGSLRLSCAASGSTFVPNAMGWYRQAPGTERELVAAITVDGDDTYYADSVKGRFTISRDNAKNTVYFQMNSLKPEVTAVYYCKADPDVPFFSWLTGRGTYDYWGQGTQVTVSS is low polyreactivity

Looking up QVQLVESGGGLVQAGGSLRLSCASSGSIFAFNTLGWYRQAPGKERELVAAINSGGSTYYADSVKGRFTISRDNAKNTVYLQMNSLKPEDTAVYYCNARSYGIVVEYDYWGQGTQVTVSS , I found its polyreactivity (PSR sort gate) recorded as low polyreactivity

# polyreactivity (PSR sort gate) (sequence: QVQLVESGGGLVQAGGSLRLSCAASGFTFWLYSMGWYRQAPGKERELVAAISWSGGSTYYADSVKGRFTISRDNAKNTVYFQMNSMKPEDPAVYYCAAVKYVRCAEFYYWGQGTQVTVSS ) is high polyreactivity

Reported polyreactivity (PSR sort gate) of QVQLVESGGGLVQAGGSLRLSCAASGSTIFSYAMGWYRQSPGKERELVAAITYRSSRTYYADSVKGRFTISRDNAKNTVYLQMNSLKPEDTAVYYCARGGTAYRYHMDYWGQGTQVTVSS : high polyreactivity

Sample QVQLVDSGGGLVQAGGSLRLSCAASGYTFRYYAMGWYRQEPGKERELVAAITRSGTTYYADSVKGRFTISRDNAKNTVYIQMNSLKTDDTAVYYCNTRVTGNRLGYYYWGQGTQVTVSS ; polyreactivity (PSR sort gate) observed: high polyreactivity

Looking up QVQLVESGGGLVQAGGSLRLSCAASGRTFYPSAMGWYRQAPGKERQLVAAITTSGGRTYYADSVKGRFTISRDNAKNTVYLQMNSLKPEDTAVYYCAKAYREGEGKFDYWGQGTQVTVSS , I found its polyreactivity (PSR sort gate) recorded as high polyreactivity

====

- Assay comment: yeast display, Sf9 membrane polyspecificity reagent, FACS + sequencing; frameworks hold sequencing errors
Quantity measured: polyreactivity (PSR sort gate)

QVQHVDSGGGLVQAGGSLRLSCSASGINFPWYAMGWYRQAPGKERELVAAITSGGSTYYADSVKGRFTISRDNAKNTVYLEMYSLKPEDTAVYYCNADYYSWYLGAYLYDYWGQGTQVTVSS
high polyreactivity
QVQLVESGGGLVQAGGSLRLSCAASGSTFGWYAMGWYRQAPGKERELVAAISTSGGSSYYADSVKGRFTISRDNAKNTVYLQMNSLKPEDTAVYYCNGYYRRYSITFDRYDYWGQGSQVTVSS
high polyreactivity
